molecular target: Prostaglandin G/H synthase 1 (Homo sapiens); test: Inhibition of human COX1 expressed in CHO cells assessed as reduction in arachidonic acid-stimulated PGE2 production
Sequence (P23219 whole entry): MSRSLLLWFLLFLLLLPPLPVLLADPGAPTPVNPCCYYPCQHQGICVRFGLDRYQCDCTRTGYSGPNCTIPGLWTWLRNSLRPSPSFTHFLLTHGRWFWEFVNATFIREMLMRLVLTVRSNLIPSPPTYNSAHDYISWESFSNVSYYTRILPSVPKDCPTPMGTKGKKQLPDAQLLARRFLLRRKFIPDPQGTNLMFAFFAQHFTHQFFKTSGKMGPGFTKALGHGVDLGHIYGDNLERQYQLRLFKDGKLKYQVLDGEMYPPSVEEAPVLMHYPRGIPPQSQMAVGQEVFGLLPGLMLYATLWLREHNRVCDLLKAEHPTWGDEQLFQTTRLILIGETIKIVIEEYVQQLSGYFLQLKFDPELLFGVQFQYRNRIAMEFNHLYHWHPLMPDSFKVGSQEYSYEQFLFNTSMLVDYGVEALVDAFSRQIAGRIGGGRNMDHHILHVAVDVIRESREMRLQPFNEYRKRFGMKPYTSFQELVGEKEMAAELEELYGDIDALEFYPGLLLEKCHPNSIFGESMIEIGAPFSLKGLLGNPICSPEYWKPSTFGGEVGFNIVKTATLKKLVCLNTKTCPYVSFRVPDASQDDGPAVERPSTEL
pIC50: −log10 of the molar value.
MEASURED_QUANTITY: pIC50

Enter reported pIC50 observed with Prostaglandin G/H synthase 1 (Homo sapiens) for `CS(=O)(=O)c1ccc(-c2c(-c3ccccc3)nc3sccn23)cc1` < 4.30

###

test: Inhibition of soybean 15-LOX using arachidonic acid or linoleic acid as substrate preincubated for 5 mins followed by substrate addition and measured after 10 mins by colorimetric assay; parameters: species or system Glycine max
MEASURED_QUANTITY: IC50

Can you share its IC50? I mean this compound: `CSc1nc2ccccc2n1-c1csc(N)n1` 6560 nM

One more compound: `CSc1nc2ccccc2n1-c1csc(NC/C(C)=N/N=c2\scc(-c3ccc(Cl)cc3)n2-c2ccccc2)n1` 1670 nM

Another compound to check: `CSc1nc2ccccc2n1-c1csc(NC/C(C)=N/NC(=S)Nc2ccccc2)n1` 2980 nM

Next record, please: `CSc1nc2ccccc2n1-c1csc(NC(=O)c2ccc(C)cc2)n1` 4960 nM

Okay, and `CCn1c(-n2cc(/C=N/N=c3\scc(-c4ccc(Br)cc4)n3-c3ccccc3)c(-c3ccc(OC)cc3)n2)nc2c1c(=O)n(C)c(=O)n2C` ? 1820 nM

Next compound: `CSc1nc2ccccc2n1-c1csc(NC/C(C)=N/N=c2\scc(-c3ccccc3)n2-c2ccccc2)n1` 1850 nM

Another compound to look at: `CSc1nc2ccccc2n1-c1csc(=N)n1CC(=O)c1ccccc1` 3980 nM

Also `CCn1c(-n2cc(/C=N/N=c3\[nH]c(-c4ccc(Br)cc4)cs3)c(-c3ccc(OC)cc3)n2)nc2c1c(=O)n(C)c(=O)n2C` ? 1760 nM

###

Field: Activity. Provide a value for each of the compounds that follow.
tested on: Rattus norvegicus; assay: Antiinflammatory activity in albino rat assessed as reduction in carrageenan-induced paw edema by measuring thickness of right paw at 28 uM/kg, ip measured immediately by calliper method (reference value: 6.83 +/-0.17 cm); format: functional
Use cm as the unit, but write only the number.

Need Activity, item `COc1ccc2c(c1)c(CC(=O)O)c(C)n2C(=O)c1ccc(Cl)cc1` 7.17

Repeat with `CSc1nc2ccccc2n1-c1csc(NC/C(C)=N/NC(=S)Nc2ccccc2)n1` 7.33

Then `CSc1nc2ccccc2n1-c1csc(NC/C(C)=N/N=c2\scc(-c3ccc(Cl)cc3)n2-c2ccccc2)n1` ? 7.17

// repeat for `CSc1nc2ccccc2n1-c1csc(NC/C(C)=N/N=C2\SCC(=O)N2c2ccccc2)n1` and report 7

###

tested on: Rattus norvegicus; test: Anti-inflammatory activity in albino rat assessed as inhibition of carrageenan-induced paw edema at 28 uM/kg, ip measured at 0.5 hrs by calliper method relative to control; format: functional
Provide the recorded inhibition (INH) for the entries that follow.
Quick reminder: number only, in %, skip the unit.

So what does the record say about inhibition (INH) for `CSc1nc2ccccc2n1-c1csc(NC/C(C)=N/N=c2\scc(-c3ccc(Cl)cc3)n2-c2ccccc2)n1` ? 22.67

Please answer likewise for COc1ccc2c(c1)c(CC(=O)O)c(C)n2C(=O)c1ccc(Cl)cc1 [INDOMETHACIN] 34.7

Can you handle `CSc1nc2ccccc2n1-c1csc(NC/C(C)=N/N=C2\SCC(=O)N2c2ccccc2)n1` next? 38.4

Next compound up: `CSc1nc2ccccc2n1-c1csc(NC/C(C)=N/NC(=S)Nc2ccccc2)n1` 38.43
